target: human CD33 Q228A (human, UniProt P20138 18-364); assay: alanine scan, flow cytometry, HEK293-T;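 further: antibody binding to each alanine-substituted CD33 mutant expressed transiently in HEK293-T, read as fluorescence minus background, mean of duplicates, relative to wild-type CD33 set as 100%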
Sequence (P20138 18-364 Q228A limits assumed): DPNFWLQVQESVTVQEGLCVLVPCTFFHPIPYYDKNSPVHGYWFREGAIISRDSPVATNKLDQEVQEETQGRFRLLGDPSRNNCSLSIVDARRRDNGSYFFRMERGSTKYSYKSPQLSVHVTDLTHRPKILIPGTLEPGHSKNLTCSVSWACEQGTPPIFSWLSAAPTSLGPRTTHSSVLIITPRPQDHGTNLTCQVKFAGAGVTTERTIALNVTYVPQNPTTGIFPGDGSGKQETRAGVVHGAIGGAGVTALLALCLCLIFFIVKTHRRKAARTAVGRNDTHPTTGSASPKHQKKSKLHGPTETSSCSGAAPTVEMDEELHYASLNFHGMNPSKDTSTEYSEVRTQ
Item-by-item account of Mean % WT Binding
Numeric only. Scale: %

These recorded examples may help you get a feel for the data.
binder="Refmab #3 (antibody, V domains shown, In the alanine scan antibodies were used as IgG or Fab) VH: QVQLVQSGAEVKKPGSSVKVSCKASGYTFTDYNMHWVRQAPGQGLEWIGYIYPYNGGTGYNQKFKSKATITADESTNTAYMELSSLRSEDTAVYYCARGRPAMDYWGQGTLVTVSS VL: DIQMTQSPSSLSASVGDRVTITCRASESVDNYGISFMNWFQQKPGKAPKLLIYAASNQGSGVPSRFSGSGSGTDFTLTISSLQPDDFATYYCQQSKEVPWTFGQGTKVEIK" numeric_result=157
binder="Refmab #4 (antibody, V domains shown, In the alanine scan antibodies were used as IgG or Fab) VH: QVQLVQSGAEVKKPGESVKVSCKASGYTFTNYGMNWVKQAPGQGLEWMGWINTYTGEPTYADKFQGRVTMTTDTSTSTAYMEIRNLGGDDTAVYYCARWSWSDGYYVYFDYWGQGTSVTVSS VL: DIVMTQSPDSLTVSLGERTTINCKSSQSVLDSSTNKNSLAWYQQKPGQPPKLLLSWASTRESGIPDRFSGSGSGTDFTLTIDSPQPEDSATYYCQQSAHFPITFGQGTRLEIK" numeric_result=112
binder="Refmab #1 (antibody, V domains shown, In the alanine scan antibodies were used as IgG or Fab; also called hP67.6) VH: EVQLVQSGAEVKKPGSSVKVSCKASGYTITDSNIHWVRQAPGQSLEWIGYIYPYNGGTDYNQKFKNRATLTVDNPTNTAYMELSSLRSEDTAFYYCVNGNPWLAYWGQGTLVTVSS VL: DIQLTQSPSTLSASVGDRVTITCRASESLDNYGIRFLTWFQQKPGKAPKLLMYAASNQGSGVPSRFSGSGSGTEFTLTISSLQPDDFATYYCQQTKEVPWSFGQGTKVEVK" numeric_result=99.4

Now for another entry.
Entry Refmab #2 (antibody, V domains shown, In the alanine scan antibodies were used as IgG or Fab) VH: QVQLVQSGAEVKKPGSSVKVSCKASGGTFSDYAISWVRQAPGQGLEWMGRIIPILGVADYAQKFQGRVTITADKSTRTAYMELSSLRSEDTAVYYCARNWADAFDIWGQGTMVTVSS VL: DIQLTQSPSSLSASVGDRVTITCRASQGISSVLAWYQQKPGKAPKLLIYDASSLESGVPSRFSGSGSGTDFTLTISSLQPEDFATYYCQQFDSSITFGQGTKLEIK : reported Mean % WT Binding = ?
120
